Target: T1, recombinant human clusterin (human, UniProt P10909 23-449)
T1 construct: also called rhCLU; rh-clusterin
T1 sequence (P10909 23-449 limits assumed): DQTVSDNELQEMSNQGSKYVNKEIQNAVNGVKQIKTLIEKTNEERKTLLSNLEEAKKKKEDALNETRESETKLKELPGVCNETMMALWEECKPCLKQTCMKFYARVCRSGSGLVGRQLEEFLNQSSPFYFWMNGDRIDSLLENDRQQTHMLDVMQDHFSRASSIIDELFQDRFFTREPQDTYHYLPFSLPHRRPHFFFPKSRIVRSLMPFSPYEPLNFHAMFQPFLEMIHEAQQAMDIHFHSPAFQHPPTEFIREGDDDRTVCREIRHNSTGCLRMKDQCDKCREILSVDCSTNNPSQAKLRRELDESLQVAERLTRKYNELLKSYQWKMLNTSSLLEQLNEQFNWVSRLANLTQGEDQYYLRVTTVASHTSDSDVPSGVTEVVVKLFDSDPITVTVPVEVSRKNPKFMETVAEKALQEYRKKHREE
Assay: SPR (BIAcore 3000), rhCLU over immobilized P3378 (500 RU), kinetic global fit, 1:1 Langmuir
measurement_name: pKd
Answer as the number alone; pKd is minus log10 of concentration in mol/L.

So what does the record say about pKd for HPLSKHPYWSQPSGSGC (Synthesised by Fmoc chemistry; In SPR it was immobilised on a CM5 chip by a thioether bond from the C-terminal Cys to maleimide; In STD-NMR it was free in solution) [P3378 synthetic peptide (HPLSKHPYWSQP with C-terminal SGSGC extension)] ?
6.52
